In this section we review reported cell viability values for a set of compounds.
Tested on: MOLM14;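 also: after 48 h exposure read by CellTiter-Glo luminescence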
Assay: cell viability relative to vehicle control; higher = less cytotoxic
Settings: 10 µM; SRSF2 genotype: SRSF2 P95H/wt
Counter-ions that a name gives are not always drawn.

Compound	Target	cell viability (%)
CO/N=C(\C(=O)N[C@@H]1C(=O)N2C(C(=O)O)=C(Cn3ccc(=N)n3CCO)CS[C@H]12)c1csc(N)n1 [Cefoselis sulfate]	MOLM14	100
O=C(/C=C/c1ccc(CN(CCO)CCc2c[nH]c3ccccc23)cc1)NO	MOLM14	0.84
O=C(O)C[C@H](O)C[C@H](O)/C=C/c1c(C2CC2)nc2ccccc2c1-c1ccc(F)cc1	MOLM14	32.9
CN[C@H]1CN(c2ccc3c(=O)c(C(=O)O)cn(-c4nccs4)c3n2)C[C@@H]1OC [Voreloxin (SNS-595) hydrochloride]	MOLM14	21.3
c1ccc2occc2c1	MOLM14	98.4
CC[C@@H](CO)NCCN[C@@H](CC)CO [Ethambutol HCl]	MOLM14	100
OC[C@H]1O[C@@H](c2ccc(Cl)c(Cc3ccc(O[C@H]4CCOC4)cc3)c2)[C@H](O)[C@@H](O)[C@@H]1O	MOLM14	94.3
O=C(O)c1ccc(O)cc1 [4-Hydroxybenzoic acid]	MOLM14	98.4
COc1cc2c(cc1OC)[C@@H]1Cc3ccc(OC)c(OC)c3CN1CC2 [Tetrahydropalmatine hydrochloride]	MOLM14	93.4
CCC(C)C(NC(=O)C(C(C)CC)N(C)C(C)=O)C(=O)NC(C(=O)NC(CC(C)C)C(=O)C1(C)CO1)C(C)O (stereo unspecified) [Epoxomicin (BU-4061T)]	MOLM14	0.14
Cc1cc(-c2ccc(/N=N/c3ccc4c(S(=O)(=O)O)cc(S(=O)(=O)O)c(N)c4c3O)c(C)c2)ccc1/N=N/c1ccc2c(S(=O)(=O)O)cc(S(=O)(=O)O)c(N)c2c1O	MOLM14	67.4
Cc1cc(C(C)(C)C)cc(C)c1CC1=NCCN1 [Xylometazoline HCl]	MOLM14	102
NC(=O)C1CCCc2c1[nH]c1ccc(Cl)cc21 (stereo unspecified)	MOLM14	96
CC(C)(C)C(=O)Nc1ccc2c(c1)C(=O)C(=O)c1ccccc1-2	MOLM14	88.4
C/C=C(/C)C(=O)OC(=O)/C(C)=C\C [Angelic anhydride]	MOLM14	103
COc1ccc(-c2coc3cc(O[C@@H]4O[C@H](CO)[C@@H](O)[C@H](O)[C@H]4O)ccc3c2=O)cc1O [Calycosin-7-O-beta-D-glucoside]	MOLM14	112
C=C1[C@H](OC(=O)/C=C(\C)CC)C[C@@H](C(C)C)[C@@H]2[C@@H]([C@@H](C)OC(C)=O)C(=O)C[C@@H]12	MOLM14	64.5
CN1CCN(c2ccc3nc(-c4c(N)c5c(F)cccc5[nH]c4=O)[nH]c3c2)CC1 [Dovitinib (TKI-258, CHIR-258)]	MOLM14	2.27
CCCCCCOC(=O)NC(=N)c1ccc(NCc2nc3cc(C(=O)N(CCC(=O)OCC)c4ccccn4)ccc3n2C)cc1	MOLM14	0.49
Cn1cc(C2=C(c3ccc(Cl)cc3Cl)C(=O)NC2=O)c2ccccc21	MOLM14	103
C=CC(=O)N1CC/C(=C\c2ccc(F)c([N+](=O)[O-])c2)C(=O)/C(=C/c2ccc(F)c([N+](=O)[O-])c2)C1	MOLM14	0.29
O=C(O)CCc1ccc(O)cc1	MOLM14	109
COc1cc2c(c(OC)c1OC)-c1c(cc3c(c1OC)OCO3)CC(C)C(C)C2 (stereo unspecified)	MOLM14	73
COc1cc2nccc(Oc3ccc(NC(=O)C4(C(=O)Nc5ccc(F)cc5)CC4)cc3)c2cc1OC	MOLM14	5.29
COC(=O)c1ccc(O)c(C(=O)OC)c1 [Dimetghyl 4-Hydroxyisophthalate]	MOLM14	97.3
Nc1ncn([C@H]2C[C@H](O)[C@@H](CO)O2)c(=O)n1	MOLM14	47.4
O=C(NCCCNc1nc(Nc2cccc(NC(=O)N3CCCC3)c2)ncc1I)c1cccs1	MOLM14	11.1
CCc1ccc(-c2nc(CSCC(=O)NCCc3ccccc3)c(C)o2)cc1	MOLM14	87.5
COc1cc(N2CCC(N3CCN(C)CC3)CC2)ccc1Nc1ncc(Cl)c(Nc2ccccc2S(=O)(=O)C(C)C)n1	MOLM14	7.58
CCN(CC)Cc1cc(Nc2ccnc3cc(Cl)ccc23)ccc1O [Amodiaquine hydrochloride]	MOLM14	40.2
C[C@H](CCC(=O)NCCS(=O)(=O)O)[C@H]1CC[C@H]2[C@@H]3[C@H](O)C[C@@H]4C[C@H](O)CC[C@]4(C)[C@H]3C[C@H](O)[C@]12C [Taurocholic acid sodium salt hydrate]	MOLM14	103
